All figures here come from patent US20240239878A1.

Exercise: state measured Kd for each of the binders provided.
# System under test: T1, Cynomolgus monkey DLL3 antigen protein (Kactus Biosystems, Cat. No. CM103) (Cynomolgus monkey, UniProt Q9NYJ7 27-490 (human entry))
# T1 construct: also called cyno DLL3
# T1 chain: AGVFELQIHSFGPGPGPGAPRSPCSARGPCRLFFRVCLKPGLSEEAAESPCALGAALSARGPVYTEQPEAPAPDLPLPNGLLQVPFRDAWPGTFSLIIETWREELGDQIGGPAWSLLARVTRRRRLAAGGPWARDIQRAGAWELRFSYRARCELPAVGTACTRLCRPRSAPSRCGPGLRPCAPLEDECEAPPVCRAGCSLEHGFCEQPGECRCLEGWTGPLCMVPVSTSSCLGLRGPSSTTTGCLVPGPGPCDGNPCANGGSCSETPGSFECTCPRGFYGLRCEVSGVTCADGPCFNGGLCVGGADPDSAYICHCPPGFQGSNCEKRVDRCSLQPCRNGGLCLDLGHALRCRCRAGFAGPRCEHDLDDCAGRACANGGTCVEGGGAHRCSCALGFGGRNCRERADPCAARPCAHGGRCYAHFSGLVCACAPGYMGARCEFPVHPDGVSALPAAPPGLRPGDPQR
# Test method notes: affinity assay with Cynomolgus monkey DLL3 antigen protein (kinetics; method not restated, Biacore as in Example 18 implied)
One number for each entry, in pM.

{"Binder": "H2-39E2D11-AS humanized antibody variant (antibody, V domains shown, Variant of H2-39E2D11; Its constant regions are not restated) VH: QVQLVQSGAEVKKPGASVKVSCKASGYTFISYWITWVRQAPGQGLEWMGDIYPGSGSTTNYNEKFKSRVTMTRDTSTSTVYMELSSLRSEDTAVYYCARETTVGGAYAMDYWGQGTLVTVSS VL: EIVLTQSPATLSLSPGERATLSCRASQSINNNLHWYQQKPGQAPRLLIKYVSQSISGIPARFSGSGSGTDFTLTISSLEPEDFAVYYCQQTASWPLTFGGGTKLEIK", "Kd / pM": 1630}
{"Binder": "H2-39E2D11-QS humanized antibody variant (antibody, V domains shown, Variant of H2-39E2D11; Its constant regions are not restated) VH: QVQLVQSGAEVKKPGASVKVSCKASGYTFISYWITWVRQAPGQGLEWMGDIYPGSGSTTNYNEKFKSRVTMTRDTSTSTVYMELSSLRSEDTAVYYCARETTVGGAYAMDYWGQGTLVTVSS VL: EIVLTQSPATLSLSPGERATLSCRASQSINNNLHWYQQKPGQAPRLLIKYVSQSISGIPARFSGSGSGTDFTLTISSLEPEDFAVYYCQQTQSWPLTFGGGTKLEIK", "Kd / pM": 434}

Dear colleague, could you send me Kd for each of the items below? Thanks.
1. H2-39E2D11-NA humanized antibody variant (antibody, V domains shown, Variant of H2-39E2D11; Its constant regions are not restated) VH: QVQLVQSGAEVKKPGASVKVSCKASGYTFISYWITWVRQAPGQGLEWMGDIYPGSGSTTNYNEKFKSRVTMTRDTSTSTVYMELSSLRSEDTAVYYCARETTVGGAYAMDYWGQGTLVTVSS VL: EIVLTQSPATLSLSPGERATLSCRASQSINNNLHWYQQKPGQAPRLLIKYVSQSISGIPARFSGSGSGTDFTLTISSLEPEDFAVYYCQQTNAWPLTFGGGTKLEIK
2. H2-39E2D11 mouse hybridoma-derived humanized anti-DLL3 antibody (antibody, V domains shown) VH: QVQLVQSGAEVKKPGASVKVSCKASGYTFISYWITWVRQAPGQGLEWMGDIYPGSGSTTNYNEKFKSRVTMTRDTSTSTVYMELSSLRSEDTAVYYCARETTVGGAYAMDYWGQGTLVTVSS VL: EIVLTQSPATLSLSPGERATLSCRASQSINNNLHWYQQKPGQAPRLLIKYVSQSISGIPARFSGSGSGTDFTLTISSLEPEDFAVYYCQQTNSWPLTFGGGTKLEIK

## Output
346
143
